# Test system: RPMI-8226 leukemia
# PROTOCOL_DESCRIPTION: NCI tumour cell line growth inhibition, 48 h
MEASURED_PARAMETER: TGI (µM)
Give a bare numeral; the unit µM is implied.

// TGI lookup, key: CCOC(=O)c1c(/C=N\Nc2ccccc2)nc2ccccc2c1-c1ccccc1 83.8

// TGI lookup, key: N#Cc1c(N)nc(N2CCOCC2)c(C#N)c1-c1ccc(Cl)cc1Cl 56.9

// TGI lookup, key: Cc1cc(N(CCCl)CCCl)ccc1/C=N\NC(=O)c1cccnc1 59

// TGI lookup, key: Cc1c(-c2ccc(N3CCc4cccc(C(=O)Nc5nc6ccccc6s5)c4C3)nc2C(=O)O)cnn1CC12CC3CC(CC(C3)C1)C2 2.86

// TGI lookup, key: COc1c(-c2nc3nc(N4CCN(C)CC4)ccc3[nH]2)cc(OC)c2c1nc(CCl)n2C 43.1
